- Tested on: CCRF-CEM
- measurement-notes: NCI tumour cell line growth inhibition, 48 h
Active and inactive are the calls of the source. Rule as the data show it: active = GI50 up to about 1.1 µM and inactive = higher.
Labels: active, inactive

Cc1cc(O)c2c(c1)C(=O)C=C(Br)C2=O
active
Cc1cc2ncn(C3CCCO3)c2cc1C (stereo not given)
inactive
COc1cccc(NC(=O)C(C)(C)C)c1C=O
inactive
CN(C)c1ccc(C(=C2C=CC(=[N+](C)C)C=C2)c2ccc(N(C)C)cc2)cc1
active
C=C1CC(C)(COc2ccc3c(C)c(Cl)c(=O)oc3c2)OC1=O (stereo not given)
active
Cc1cc2c(c3oc(C4(C)OC4C4OC4C)cc(=O)c13)C(=O)c1c(O)c(C3CC(C)(N(C)C)C(O)C(C)O3)cc(C3CC(N(C)C)C(O)C(C)O3)c1C2=O (stereo not given)
active
COC(=O)/C=C\C(C#N)(C#N)/N=C/c1cc(Br)cs1
active
COc1ccc(Cc2nc3cc(C(F)(F)F)ccc3n2CCCN(C)C)cc1
inactive
COc1cc2c(cc1OCCCCOc1cc(-c3ccc(F)cc3)nc(C)n1)N=C[C@@H]1CCCN1C2=O
active
CCCCCCCCCCCCCCCCCC(=O)OCC(COC1OC(COP(=O)(O)O)C(O)C(O)C1O)OC(=O)CCCCCCCCCCCCCCCCC (stereo not given)
inactive
CCOP(C)(=O)C(Nc1ccc(F)cc1)c1ccc(F)cc1 (stereo not given)
inactive
c1ccc(C(=NCCC2CNc3ccccc32)c2ccccc2)cc1 (stereo not given)
inactive
c1ccc(-c2c3c(nc4c2CC[C@H]4NC2=NCCN2)[C@@H](NC2=NCCN2)CC3)cc1
inactive
C(=N/NC1=NCCN1)/c1c2ccccc2c(/C=N\NC2=NCCN2)c2ccccc12
active
O=C(O)C1CSC2(CCCN(Cc3ccccc3)C2)N1 (stereo not given)
inactive
COC1OC(CO)C(O)C(OC(=O)c2cc(O)c(O)c(O)c2)C1OC(=O)c1cc(O)c(O)c(O)c1 (stereo not given)
inactive
Cc1cn(C2CC(O)C(Cn3nncc3Cn3cnc4c(N)ncnc43)O2)c(=O)[nH]c1=O (stereo not given)
inactive
CCc1nnc(CC)n1N1C(=O)CCC1=O
inactive
O=C1CSC(c2ccccc2)N1c1nc2cc3sc(N4C(=O)CSC4c4ccccc4)nc3cc2s1 (stereo not given)
inactive
CC1CCC2c3c([nH]c4ccccc34)C3C(=O)N(C4CCCCC4)C(=O)C3C2C1 (stereo not given)
inactive

====

- System: M19-MEL
- measurement-notes: NCI tumour cell line growth inhibition, 48 h
The source made the active and inactive calls. No stated cut-off is given here; in the data, active = GI50 up to about 1.1 µM and inactive = higher.
observable: GI50

COC(=O)C1=Cc2c(cc(OC)c(OC)c2OC)[C@H](c2ccc(OC)c(OC)c2OC)C1C(=O)OC (some centres undefined)
> 100 µM (inactive)
CC(C)(C)C(C#N)(C#N)c1ccc(C(C#N)(C#N)C(C)(C)C)nn1
> 100 µM (inactive)
O=C(c1ccccc1)C(c1ccccc1)C1(O)C(=O)Nc2ccc([N+](=O)[O-])cc21 (centres undefined)
26.9 µM (inactive)
O=C(/C=C/c1ccc(OCCCOc2ccc(/C=C/C(=O)c3ccc(Cl)cc3)cc2)cc1)c1ccc(Cl)cc1
> 100 µM (inactive)
Cc1ccc([N+](=O)[O-])cc1NC(=O)C(=O)Cc1nc2ccc(C(=O)c3ccccc3)cc2nc1O
> 100 µM (inactive)
CN1CCCS/C1=C1/SC(=S)N(c2ccccc2)C1=O
> 100 µM (inactive)
O=C(/C=C1\Nc2ccccc2C(=O)N1c1ccccc1Cl)c1ccccc1
> 100 µM (inactive)
CN(C(=O)c1ccc(Cl)cc1)C(=S)N1CCN(c2ccccn2)CC1
> 100 µM (inactive)
[O-][n+]1c2cc3c(cc2[n+]([O-])c2c(O)cccc21)CN(CCN1CCOCC1)C3
14.5 µM (inactive)

====

- Tested on: SF-295
- measurement-notes: NCI tumour cell line growth inhibition, 48 h
The source made the active and inactive calls. No stated cut-off is given here; in the data, active = GI50 up to about 1.1 µM and inactive = higher.
Labels: active, inactive

COc1cccc(/C(C=O)=C(\Cl)c2ccc(OC)c(OC)c2)c1
inactive
Cc1ccc(S(=O)OC2C3CC4CC(C3)CC2C4)cc1 (centres undefined)
inactive
COC1/C=C/C(C)C(C(C)C(OC)C(C)CCC(=O)C(C)C(CCC(=O)O)OC)OC(=O)/C=C/C=C(\C)CC(OC)CC2=CC(=O)O[C@@H](C(C)C(OC)CC(OC)/C=C/C(C)C(OC)C1)[C@H]2O (some centres undefined)
active
CNC1C(OC2C(OC3C(O)C(O)C(O)C(O)C3O)OC(C)C2(O)CO)OC(CO)C(O)C1O.N=C(N)N.NC(=O)O (centres undefined)
inactive

====

- Test system: UACC-62
- measurement-notes: NCI tumour cell line growth inhibition, 48 h
Calls of active or inactive are those of the source. Rule as the data show it: active = GI50 up to about 1.1 µM and inactive = higher.
Labels: active, inactive

c1ccc(-c2c3c(nc4c2CC[C@H]4NC2=NCCN2)[C@@H](NC2=NCCN2)CC3)cc1
inactive
COc1cc(/C=C/C(=O)OCC23CC[C@@]4(C(=O)O)CCC(C)[C@H](C)C4C2=CCC2[C@@]4(C)CC[C@H](O)C(C)(C)C4CC[C@]23C)ccc1O (some centres undefined)
inactive
CC1OC(OC2C[C@](O)(C(=O)CF)Cc3c(O)c4c(c(O)c32)C(=O)c2ccccc2C4=O)CC(N)C1O (some centres undefined)
active
COc1ccc2c(C)cc(N/N=C/c3ccc(OC)c4ccccc34)nc2c1
inactive
O=C1NI(C#Cc2ccccc2)c2ccccc21
inactive
CC1=C2N3C[C@@H](n4c(=O)n(C)c(=O)n43)C23CCC1n1c(=O)n(C)c(=O)n13
inactive
COc1cc(C2c3cc4c(cc3OC(N3CCCC3)C2C)OCO4)cc(OC)c1O (centres undefined)
inactive
C[C@]12CCc3nonc3C1CC[C@@H]1C2CC[C@]2(C)C(=O)CCC12 (some centres undefined)
inactive
c1ccc(C(=NCCC2CNc3ccccc32)c2ccccc2)cc1 (centres undefined)
inactive
COc1ccc(/C=C/C2=NN(c3cccc(S(=O)(=O)O)c3)C3(C2)SCC(=O)N3c2nc3ccccc3s2)cc1 (centres undefined)
inactive
COc1ccc(OC)c2sc(N3C(=O)/C(=C/Cc4ccco4)N=C3c3ccccc3)nc12
inactive
C=C1CC[C@@H]2[C@](C)(COC(=O)CCC(=O)O)CCC[C@@]2(C)[C@@H]1CCC1=CC(=O)OC1
inactive
Cc1ccc(C2=CC(=O)/C(=C\C(=O)c3ccc(Cl)cc3)O2)cc1
inactive
O=C(CCc1nnc(S)[nH]1)Nc1cc(Cl)c(Cl)cc1Cl
inactive
C(=N/NC1=NCCN1)/c1c2ccccc2c(/C=N\NC2=NCCN2)c2ccccc12
active
COC(=O)c1ccccc1C#CC#Cc1ccccc1C(=O)OC
inactive
COc1ccc(C(Nc2ncccn2)c2cc3c(cc2O)OCO3)cc1 (centres undefined)
inactive
CCN(CC(O)COc1ccc2c(c1)[n+]([O-])nc(N)[n+]2[O-])C(C)=O (centres undefined)
inactive
Cc1cc2c(c3oc(C4(C)OC4C4OC4C)cc(=O)c13)C(=O)c1c(O)c(C3CC(C)(N(C)C)C(O)C(C)O3)cc(C3CC(N(C)C)C(O)C(C)O3)c1C2=O (centres undefined)
active

====

# maps each entry to its GI50
- Test system: CAKI-1
- measurement-notes: NCI tumour cell line growth inhibition, 48 h
Calls of active or inactive are those of the source. Cut-off read from the data, not from the text of the source: active = GI50 up to about 1.1 µM and inactive = higher.
observable: GI50

COC(=O)c1ccc(/C=C/c2cc(O)ccc2O)cc1
2.43 µM (inactive)
[N-]=[N+]=NI1OC(C(F)(F)F)(C(F)(F)F)c2ccccc21
8.55 µM (inactive)
C[C@@H](NC(=O)[C@@H]1C[C@]1(C)CO)c1cccc2ccccc12
> 100 µM (inactive)
CC1OC(OC2C(OC(=O)[C@]34CCC(C)(C)C[C@H]3C3=CC[C@@H]5[C@@]6(C)CC[C@H](OC7OC(CO)C(O)C(O)C7OC7OC(CO)C(O)C(O)C7O)C(C)(C)[C@@H]6CC[C@@]5(C)[C@]3(C)CC4)OCC(O)C2O)C(O)C(OC2OCC(O)C(O)C2O)C1OC1OCC(O)C(OC2OCC(O)C(O)C2O)C1O (some centres undefined)
6.67 µM (inactive)

====

# maps each entry to its GI50
- Tested on: SNB-78
- measurement-notes: NCI tumour cell line growth inhibition, 48 h
Active and inactive are the calls of the source. No stated cut-off is given here; in the data, active = GI50 up to about 1.1 µM and inactive = higher.
observable: GI50

CCOC1c2cc(OC)c(OC)cc2-c2ccc3ccccc3c2N1C (stereo not given)
33.6 µM (inactive)
COC(=O)C12C3C4C1C1C2C3C41C(=O)N(C(C)C)C(C)C (stereo not given)
> 100 µM (inactive)
COc1cc(C(O)C(=O)c2nc3ccc([N+](=O)[O-])cc3nc2O)ccc1O (stereo not given)
> 100 µM (inactive)
Nn1c(CCCl)nc2c(Br)cc(Br)cc2c1=O
34 µM (inactive)
O=C(CC(=O)N1N=C(c2ccccc2)C(/N=N/c2ccccc2Cl)C1=O)Nc1ccccc1Cl (stereo not given)
40.9 µM (inactive)
COc1cc(OC)c2c(O)cc(CC(C)O)cc2c1 (stereo not given)
> 100 µM (inactive)
O=C(/C=C/c1ccc(OCCCOc2ccc(/C=C/C(=O)c3ccc(Cl)cc3)cc2)cc1)c1ccc(Cl)cc1
> 100 µM (inactive)
CC(C)(C)C(=O)OCC1CCC(n2cnc3c(=O)[nH]c(N)nc32)O1 (stereo not given)
> 100 µM (inactive)
CSC(=S)NNC(=O)c1ccncc1
28.2 µM (inactive)
O=C(/C=C1\Nc2ccccc2C(=O)N1c1ccccc1Cl)c1ccccc1
> 100 µM (inactive)
